Where do these numbers come from? They come from ChEMBL document CHEMBL2346654.

- assay-system: Metabotropic glutamate receptor 5 (Homo sapiens)
- Sequence (P41594 whole entry): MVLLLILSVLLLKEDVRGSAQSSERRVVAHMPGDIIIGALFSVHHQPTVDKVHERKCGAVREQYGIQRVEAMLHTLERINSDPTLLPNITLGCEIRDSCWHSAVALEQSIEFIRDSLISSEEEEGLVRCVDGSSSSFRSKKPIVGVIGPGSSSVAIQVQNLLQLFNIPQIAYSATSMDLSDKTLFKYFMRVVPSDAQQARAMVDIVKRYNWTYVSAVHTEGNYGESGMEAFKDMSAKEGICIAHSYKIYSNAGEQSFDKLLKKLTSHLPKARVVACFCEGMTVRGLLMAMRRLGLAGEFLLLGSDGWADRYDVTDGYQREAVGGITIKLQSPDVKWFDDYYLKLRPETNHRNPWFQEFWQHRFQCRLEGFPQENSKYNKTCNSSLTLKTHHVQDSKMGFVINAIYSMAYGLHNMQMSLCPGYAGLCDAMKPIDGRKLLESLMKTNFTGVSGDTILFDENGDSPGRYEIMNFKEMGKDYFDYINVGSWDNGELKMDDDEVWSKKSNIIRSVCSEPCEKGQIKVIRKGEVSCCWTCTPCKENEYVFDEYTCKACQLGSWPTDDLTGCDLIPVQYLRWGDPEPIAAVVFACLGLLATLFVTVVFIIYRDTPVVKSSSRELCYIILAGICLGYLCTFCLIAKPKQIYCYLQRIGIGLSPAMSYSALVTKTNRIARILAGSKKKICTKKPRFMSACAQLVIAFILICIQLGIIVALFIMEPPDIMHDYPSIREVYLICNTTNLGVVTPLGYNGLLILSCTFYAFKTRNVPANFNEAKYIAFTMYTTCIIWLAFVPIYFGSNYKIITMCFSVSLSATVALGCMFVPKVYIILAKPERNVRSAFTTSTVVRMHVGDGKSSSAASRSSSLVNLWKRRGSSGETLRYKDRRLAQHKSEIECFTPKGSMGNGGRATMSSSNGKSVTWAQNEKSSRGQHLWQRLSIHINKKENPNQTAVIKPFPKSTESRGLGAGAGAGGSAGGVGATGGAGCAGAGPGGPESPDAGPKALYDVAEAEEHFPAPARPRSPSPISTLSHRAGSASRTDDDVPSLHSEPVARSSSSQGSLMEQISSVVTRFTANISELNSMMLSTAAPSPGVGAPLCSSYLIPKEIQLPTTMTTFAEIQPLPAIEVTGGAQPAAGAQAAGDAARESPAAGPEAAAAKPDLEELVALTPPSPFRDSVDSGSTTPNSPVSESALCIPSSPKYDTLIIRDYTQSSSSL
- procedure-details: Negative allosteric modulation of human mGluR5 expressed in HEK293 cells assessed as calcium mobilization by FLIPR assay
- Assay type: functional, cell-based
assay-endpoint: IC50 (nM)

                                   compound                              assay_system  assay_endpoint  recorded_measurement
0  Cc1cccc(NC(=O)c2nn(C)c(OCc3ccc(F)cc3)c2C)n1  Metabotropic glutamate receptor 5 (Homo sapiens)            IC50                   911

1 = Cc1cccc(NC(=O)c2nn(C)c(-c3cccc(Cl)c3)c2C)n1
2 = Cc1cccc(NC(=O)c2nc(C)n(-c3ccc(C(F)(F)F)cc3)c2C)n1
IN: Between 1 and 2 , which one shows the smaller IC50 number? Pick one and reply with its label.
OUT: 1
(1: 4.7 nM, 2: 46.2 nM)

I = Cc1cccc(NC(=O)c2nn(C)c(-c3cc(F)cc(F)c3)c2C)n1
II = Cc1cccc(NC(=O)c2nn(C)c3c2CCCC3)n1
III = Cc1c(C(=O)Nc2ccnc(Cl)c2)nn(C)c1-c1ccc(F)cc1
IV = Cc1c(C(=O)Nc2cccc(C(F)(F)F)n2)nn(C)c1-c1ccc(F)cc1
IN: Would you mind ranking these compounds by ascending IC50? Answer by writing out the labels in the requested order.
OUT: I, II, III, IV
(I: 5.3 nM, II: 27 nM, III: 56.3 nM, IV: 130 nM)

A = Cc1nc(C(=O)Nc2cccc(F)n2)c(C)n1-c1ccc(F)cc1
B = Cc1nc(C(=O)Nc2ccnc(Cl)c2)c(C)n1-c1ccc(F)cc1
C = Cc1cc(NC(=O)c2nn(C)c(-c3ccc(F)cc3)c2C)ccn1
IN: Returns the items ordered by IC50, from maximum to minimum. List the labels, following the order given in the request.
OUT: C, B, A

P = Cc1c(C(=O)Nc2ccncc2)nn(C)c1-c1ccc(F)cc1
Q = Fc1ccc2nc(CCC#Cc3ccccn3)cn2c1 [DIPRAGLURANT]
IN: Out of P and Q , name the one with the higher IC50. Give the chosen item's label as your response.
OUT: P
(P: 301 nM, Q: 20 nM)
